# SYSTEM_NAME: CAXIII (Homo sapiens, UniProt Q8N1Q1)
# Sequence (Q8N1Q1 whole entry): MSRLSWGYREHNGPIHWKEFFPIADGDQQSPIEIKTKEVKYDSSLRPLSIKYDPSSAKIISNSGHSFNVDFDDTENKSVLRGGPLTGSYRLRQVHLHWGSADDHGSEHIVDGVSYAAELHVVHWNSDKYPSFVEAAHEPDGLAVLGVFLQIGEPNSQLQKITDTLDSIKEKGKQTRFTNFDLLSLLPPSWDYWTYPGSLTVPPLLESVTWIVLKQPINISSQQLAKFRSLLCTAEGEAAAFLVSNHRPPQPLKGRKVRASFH
# ASSAY_REMARKS: biochemical
# CONDITION_CONTEXT: Observed Dissociation Constant (Kd_obs), FTSA, pH 7.0, 37 °C
PROPERTY: Kd (nM)

* NS(=O)(=O)c1ccc(NCC(CC(=O)NN=Cc2ccccc2[N+](=O)[O-])C(=O)NN=Cc2ccccc2[N+](=O)[O-])c(Cl)c1 (stereo not drawn) [Compound 15b] | 400
* NS(=O)(=O)c1ccc(NCC(CC(=O)NNC(=S)Nc2ccccc2)C(=O)NNC(=S)Nc2ccccc2)cc1 (stereo not drawn) [Compound 23a] | 10000
* NS(=O)(=O)c1ccc(NCC(Cc2n[nH]c(=S)n2-c2ccccc2)c2n[nH]c(=S)n2-c2ccccc2)c(Cl)c1 (stereo not drawn) [Compound 25b] | 400

P. NS(=O)(=O)c1ccc(NCC(CC(=O)NN=Cc2ccc(F)cc2)C(=O)NN=Cc2ccc(F)cc2)c(Cl)c1 (stereo not drawn) [Compound 13b]
Q. NS(=O)(=O)c1ccc(NCC(CC(=O)NN=Cc2cccc([N+](=O)[O-])c2)C(=O)NN=Cc2cccc([N+](=O)[O-])c2)c(Cl)c1 (stereo not drawn) [Compound 16b]
Task for the reader: decide whether P or Q has the larger Kd. When you have decided, please share the label of that item.
Q

---

# SYSTEM_NAME: CAXIII (Homo sapiens);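 also: recombinant human CAXIII melting temperature tracked by ANS fluorescence in thermal shift assay, Tm fitted against ligand concentration, intrinsic value corrects Kd for deprotonated sulfonamide and Zn-bound water fractions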
# ASSAY_REMARKS: biochemical
# CONDITION_CONTEXT: Observed Dissociation Constant (Kd_obs), FTSA, pH 7.0, 37 °C
pKd: −log10 of the molar value.
PROPERTY: pKd

1. CC(=NNC(=O)CC(CNc1ccc(S(N)(=O)=O)cc1)C(=O)NN=C(C)c1ccccc1)c1ccccc1 (centres unmarked)
2. NS(=O)(=O)c1ccc(NCC(CC(=O)NN=Cc2ccccc2O)C(=O)NN=Cc2ccccc2O)cc1 (centres unmarked)
Could you point out whether the larger pKd belongs to 1 or to 2 ? Select an item and report its label.
1
(1: 5.30, 2: 5.00)

P. NS(=O)(=O)c1ccc(NCC(CC(=O)NN=Cc2ccccc2Cl)C(=O)NN=Cc2ccccc2Cl)cc1 (centres unmarked) [Compound 10a]
Q. NS(=O)(=O)c1ccc(NCC(CC(=O)NN=Cc2ccc(O)cc2)C(=O)NN=Cc2ccc(O)cc2)c(Cl)c1 (centres unmarked)
Lab log: flag the item ( P or Q ) with the smaller pKd figure. // caller expects the label of the chosen entry
P

I. NS(=O)(=O)c1ccc(NCC(CC(=O)NN=Cc2ccc(Cl)cc2)C(=O)NN=Cc2ccc(Cl)cc2)cc1 (centres unmarked) [Compound 12a]
II. NS(=O)(=O)c1ccc(NCC(CC(=O)NN=Cc2cccc(Cl)c2)C(=O)NN=Cc2cccc(Cl)c2)cc1 (centres unmarked) [Compound 11a]
Higher pKd between I and II ? Mark your selection by writing its label.
II
(II: 5.30, I: 4.77)

---

# SYSTEM_NAME: CAVB (Homo sapiens)
# Construct: made in house; host or cells: E. coli
# Sequence (Q9Y2D0 34-317): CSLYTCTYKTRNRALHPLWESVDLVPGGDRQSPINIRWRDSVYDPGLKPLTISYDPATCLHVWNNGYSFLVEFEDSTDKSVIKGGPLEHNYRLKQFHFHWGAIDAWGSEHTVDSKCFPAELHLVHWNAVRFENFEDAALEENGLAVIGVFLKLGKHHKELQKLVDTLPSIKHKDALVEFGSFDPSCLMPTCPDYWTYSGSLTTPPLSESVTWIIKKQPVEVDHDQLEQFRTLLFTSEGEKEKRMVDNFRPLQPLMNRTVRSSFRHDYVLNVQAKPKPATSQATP
# ASSAY_REMARKS: Fluorescent thermal shift assay (FTSA), CAVB
# Type: binding
# CONDITION_CONTEXT: FTSA, pH 7.0, 37 °C; read-out: Observed Dissociation Constant (Kd_obs), CAVB
PROPERTY: Kd (µM)

These solved cases illustrate the format of a correct answer.
- NS(=O)(=O)c1ccc(NCC(CC(=O)NNC(=S)Nc2ccccc2)C(=O)NNC(=S)Nc2ccccc2)c(Cl)c1 (stereo not shown) [Compound 23b]: 1.1
- Cc1ccc(C)n1NC(=O)CC(CNc1ccc(S(N)(=O)=O)cc1Cl)C(=O)Nn1c(C)ccc1C (stereo not shown) [Compound 19b]: 1.4
- CCOC(=O)c1sc(N(CCC(=O)NN)c2ccc(S(N)(=O)=O)cc2)nc1C [Compound 33]: 0.1
- NS(=O)(=O)c1ccc(N(CCC(=O)O)c2nc(-c3ccc(Cl)cc3)c(Cl)s2)cc1 [Compound 36]: 0.4
- NS(=O)(=O)c1ccc(NCC(CC(=O)NN=Cc2ccccc2)C(=O)NN=Cc2ccccc2)c(Cl)c1 (stereo not shown) [Compound 6b]: 0.13
- Cc1csc(N(CCC(=O)O)c2ccc(S(N)(=O)=O)cc2)n1 [Compound 27]: 0.56
- CCOC(=O)c1sc(N(CCC(=O)O)c2ccc(S(N)(=O)=O)cc2)nc1C [Compound 31]: 20
- NS(=O)(=O)c1ccc(NCC(CC(=O)NN=Cc2ccc(O)cc2)C(=O)NN=Cc2ccc(O)cc2)c(Cl)c1 (stereo not shown) [Compound 9b]: 0.83

P. NS(=O)(=O)c1ccc(NCC(CC(=O)NN=Cc2ccc(C(=O)O)cc2)C(=O)NN=Cc2ccc(C(=O)O)cc2)c(Cl)c1 (stereo not shown) [Compound 18b]
Q. CNC(=S)NNC(=O)CC(CNc1ccc(S(N)(=O)=O)cc1)C(=O)NNC(=S)NC (stereo not shown) [Compound 22a]
R. Cc1csc(N(CCC(=O)NN=Cc2ccccc2)c2ccc(S(N)(=O)=O)cc2)n1 [Compound 30]
S. Cc1cc(C)n(C(=O)CC(CNc2ccc(S(N)(=O)=O)cc2Cl)C(=O)n2nc(C)cc2C)n1 (stereo not shown) [Compound 20]
Sequence the entries by Kd, beginning with the highest number. Please write the labels in the order that was asked for.
Q, R, P, S
(Q: 25 µM, R: 11 µM, P: 6.7 µM, S: 3.3 µM)

From: paper PMC9033141
